FYI, the data here is from PubChem BioAssay (NCI).

Would you mind telling me the reported growth inhibition of each entry?
# experimental.protocol: NCI Yeast Anticancer Drug Screen. Data for the bub3 strain (AID 167)
# run.conditions: S. cerevisiae bub3 mutant strain, at 50.0 µM (retest, dose inferred, filed as 5.0), active compounds read high
This is part of a sample that, as a whole, favours compounds with a hit. Of some 79,000 tested, about 15% had one in any assay. Active and inactive are the calls of the source. No stated cut-off is given here; in the data, active means growth inhibition above about 70%; inactive means the rest.

Below, 3 compounds whose answers are already recorded.
Bench note: what growth inhibition did [C-]#[O+].[C-]#[O+].[Ir].[O-]c1ccc2ccccc2c1N=Nc1ccccc1 show? -20% (inactive)

Look at this compound and give its reported growth inhibition. CSc1nncc(=O)[nH]1.[Hg] 99% (active)

Returns the measured growth inhibition for the input compound. Input: c1ccc(NC2=NCCN2)nc1 84% (active)

Go through the items and report each one's growth inhibition.
1. CC[PH+](CC)CC.CC[PH+](CC)CC.[Au]
2. COc1cccc2c1C(=O)c1c(O)c3c(c(O)c1C2=O)C[C@@](O)(C(C)=O)C[C@@H]3OC1CC(N)C(OC2CC(O)C(O)C(C)O2)C(C)O1 (stereo partly specified)
3. O=C(O)CCCOc1cc(Cl)c(Cl)cc1Cl
4. CCC[N+](CCC)(CCC)CCC.N#CN=C([SH2+])[SH2+].N#CN=C([SH2+])[SH2+].[Pt+2]
5. CCC(C)(C)c1ccc(O)cc1

1: 97% (active); 2: 37% (inactive); 3: 52% (inactive); 4: -1% (inactive); 5: 7% (inactive)

List reported growth inhibition for each of these compounds:
1. COC(=O)C(CCCN=C(N)N[N+](=O)[O-])NC(=O)c1ccc2c(c1O)C(=O)c1ccccc1C2=O (stereo unspecified)
2. O=[N+]([O-])c1cc([N+](=O)[O-])c2cccnc2c1O
3. CC(C)c1c(O)c(O)c2c(c1O)C(=O)C(O)=C1C(C)(C)CCC[C@@]12C
4. O=C(C1C(c2ccccc2)N1C(c1ccccc1)c1ccccc1)C1C(c2ccccc2)N1C(c1ccccc1)c1ccccc1 (stereo unspecified)
5. Oc1ccc(Br)cc1C1N(Cc2ccc(N(CCCl)CCCl)cc2Cl)CCCN1Cc1ccc(N(CCCl)CCCl)cc1Cl

["5% (inactive)", "-11% (inactive)", "95% (active)", "56% (inactive)", "99% (active)"]

Could I get growth inhibition for every one of these entries?
1. Oc1c(Cl)cc(-c2cc(Cl)c(O)c(Cl)c2)cc1Cl
2. COC(COC(=O)N1CCN(C=O)CC1)C1=C(N2CC2)C(=O)C(C)=C(N2CC2)C1=O (stereo unspecified)
3. CC1(C)CCC(C)(C)c2cc(Cl)c(O)cc21

1: 96% (active); 2: 1% (inactive); 3: 9% (inactive)

Could you tell me growth inhibition for each of these compounds? They are listed below.
1. [CH3][Sn]([Br])([Br])[CH2]CCCBr
2. [I][Hg][I].c1ccc(N=P(c2ccccc2)(c2ccccc2)c2ccccc2)cc1
3. CCc1cc2c(cc1-c1csc(C/C(N)=N/O)n1)C(C)(C)CCC2(C)C
4. CC(=O)O/C(=C1\C[C@H]2[C@@H]3CC=C4C[C@@H](OC(C)=O)CC[C@]4(C)[C@H]3CC[C@]2(C)C1=O)C(F)(F)F
5. CC(C)(c1ccccc1)c1ccc(O)cc1

93% (active)
99% (active)
93% (active)
13% (inactive)
97% (active)

----------
# experimental.protocol: NCI Yeast Anticancer Drug Screen. Data for the wt2 strain (AID 169);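 further: 0% = growth of vehicle-treated yeast cultures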
# run.conditions: S. cerevisiae wt2 strain growth inhibition; at 11.0 µM; active compounds read high
Compounds without any hit were thinned out: in the full panel of roughly 79,000, 15% have a hit. The source made the active and inactive calls. No stated cut-off is given here; in the data, active means growth inhibition above about 70%; inactive means the rest.
endpoint.name: growth inhibition

Below are worked cases with known answers.
Value lookup for growth inhibition; key = O=C(c1ccccc1)C1C(c2ccccc2[N+](=O)[O-])N1C1CCCCC1 (stereo not drawn) 11% (inactive)

// growth inhibition lookup, key: CCS(=O)(=O)[O][Sn]([CH2]C)([CH2]C)[O]S(=O)(=O)CC -26% (inactive)

Would you kindly share the measured growth inhibition for Cc1cc[n+](C2=C(Nc3cccc(C(F)(F)F)c3)C(=O)c3ccccc3C2=O)cc1 ? 3% (inactive)

Bench note: what growth inhibition did CC[C@@]1(O)C(=O)OCc2c1cc1n(c2=O)Cc2cc3c(NC(=O)CN)cccc3nc2-1 show? 0% (inactive)

Can you share its growth inhibition? I mean this compound: O=C1NC(=S)NC(=O)C1=Cc1ccc([N+](=O)[O-])o1 2% (inactive)

For each listed entry, give its growth inhibition.
1. NNc1ccccc1Cl
2. OC1(c2ccccc2)CC2CCC(C1)N2CCCC(O)(c1ccccc1)c1ccccc1 (stereo not drawn)
3. CC1CN=C(Nc2ccccc2)S1 (stereo not drawn)

1. 83% (active)
2. 1% (inactive)
3. -21% (inactive)

----------
# experimental.protocol: NCI Yeast Anticancer Drug Screen. Data for the mgt1 strain (AID 153)
# run.conditions: S. cerevisiae mgt1 mutant growth inhibition; at 1.2 µM; active compounds read high
The panel holds about 79,000 compounds, 15% with a hit somewhere; the sample as a whole holds those more often.
Hi there, I'd appreciate the recorded growth inhibition for every entry that follows.
Answers are plain numbers, in %.

Which growth inhibition value belongs to COc1ccc(OC)c(/C=C/[N+](=O)[O-])c1 ? 0

Find the recorded growth inhibition belonging to C[N+](C)(C)CC1CCCC(C[N+](C)(C)C)C1=O (stereo not drawn) and report it. 0

Field request: growth inhibition | item: CCC1(O)C(=O)OCc2c1cc1n(c2=O)Cc2cc3cc(Cl)ccc3nc2-1 (stereo not drawn) 13

Recorded growth inhibition of COc1cc(C2c3cc4c(cc3[C@@H](Nc3ccc(N)cc3)C3COC(=O)[C@H]23)OCO4)cc(OC)c1O (stereo partly drawn) , please. -16

Return reported growth inhibition; argument: Cc1c2ccccc2cc2ccccc12 -2

Each compound below has a recorded value; state its growth inhibition.
1. CN(C)CCC(C(=O)C(Br)Br)(c1ccccc1)c1ccccc1
2. CCS(=O)(=O)[O][Sn]([CH2]C)([CH2]C)[O]S(=O)(=O)CC
3. O=C1c2ccc3ccccc3c2CCC1N1CCCCC1 (stereo not drawn)
4. CC1CN=C(Nc2ccccc2)S1 (stereo not drawn)
5. CCCCCCCCCCCCCCCCP(=O)(O)OCC(N)C(=O)O (stereo not drawn)

[-1, -3, 3, -57, 15]

Could I get growth inhibition for every one of these entries?
1. C[C@@]12CCC(=O)C=C1CC[C@H]1C2=CC[C@]2(C)C1CC[C@@]2(C)O (stereo partly drawn)
2. O=S(=O)(O)/C(=C\c1ccccc1)c1ccccc1 (tested in a mixture with another compound)
3. c1ccc2cc3n[se]nc3cc2c1
4. Nc1ccccc1C(=O)OCCc1ccccc1
5. Cn1cc(NC(=O)c2cc(NC(=O)CN=C(N)N)cn2C)cc1C(=O)NCCC(=N)N
6. S=C1NC2(CCCCC2)NC12CCCCC2

1. 12
2. 0
3. 6
4. -74
5. 1
6. -2

Hi team, please reply with growth inhibition for each item in this list.
1. COc1cc(O)c2c(O)c3c(c4c2c1[C@]1(C4)C(C)=CCCC1(C)C)[C@H](O)[C@@]1(O)CC(=O)C(C(N)=O)=C(O)[C@@]1(O)C3=O
2. O=[N+]([O-])c1oc2ccc3ccccc3c2c1CCO

[-16, 7]

----------
# experimental.protocol: NCI Yeast Anticancer Drug Screen. Data for the bub3 strain (AID 167)
# run.conditions: S. cerevisiae bub3 mutant strain, at 33.0 µM
Compounds without any hit were thinned out: in the full panel of roughly 79,000, 15% have a hit. Calls of active or inactive are those of the source. Cut-off read from the data, not from the text of the source: active = growth inhibition above about 70%; inactive = the rest.
Form entry, call: pick from active, inactive

Consider the following illustrative entries.
Test call, this compound: [Pt].c1ccc(P(CCP(c2ccccc2)c2ccccc2)CCP(c2ccccc2)c2ccccc2)cc1 active

Kindly provide the recorded test outcome for the following compound: CC1CCC2(NC1)OC1CC3C4CCC5CC(OC6OC(CO)C(OC7OC(CO)C(O)C(OC8OCC(O)C(O)C8O)C7OC7OC(CO)C(O)C(O)C7O)C(O)C6O)CCC5(C)C4CCC3(C)C1C2C (stereo unspecified) inactive

Given O=C(Nc1cc(Cl)ccc1Cl)C(Cl)(Cl)Cl , state the outcome it received in this test. inactive

Look up the recorded call for O=C(/C=C(\c1ccccc1)N1CC1)c1ccccc1 in this test. inactive

Kindly provide the recorded test outcome for the following compound: O=[N+]([O-])c1cc(S(=O)(=O)F)ccc1Cl active

Outcome? CCC1(OC(=O)CN)C(=O)OCc2c1cc1n(c2=O)Cc2cc3ccccc3nc2-1 (stereo unspecified) active

***
Per the assay record, what outcome was assigned to CC1=C(N2CC2)C(=O)c2ccccc2C1=O ? inactive

Kindly provide the recorded test outcome for the following compound: CNCC(O)c1ccc(O)c(O)c1.[Pt].c1ccc([PH+](c2ccccc2)c2ccccc2)cc1.c1ccc([PH+](c2ccccc2)c2ccccc2)cc1 active

Test call, this compound: Cn1cc(NC(=O)c2cc(NC(=O)CN=C(N)N)cn2C)cc1C(=O)NCCC(=N)N active

What did this assay record as the result for O=c1oc2ccccc2c(O)c1C(c1ccc2ccccc2c1)c1c(O)c2ccccc2oc1=O ? inactive

Hello, I am checking results. What call was entered for CC[C@]1(O)CC(OC2CC(N(C)C)C(O)C(C)O2)c2c(cc3c(c2O)C(=O)c2c(O)cccc2C3=O)[C@@H]1C(=O)OC (stereo partly specified) ? active

Which result was noted for this compound in the test: Cc1c(N)nc([C@H](CC(N)=O)NC[C@H](N)C(N)=O)nc1C(=O)N[C@H](C(=O)N[C@H](C)[C@@H](O)[C@H](C)C(=O)N[C@H](C(=O)NCCc1nc(-c2nc(C(=O)NCCC[S+](C)C)cs2)cs1)[C@@H](C)O)C(OC1OC(CO)C(O)C(O)C1OC1OC(CO)C(O)C(OC(N)=O)C1O)c1cnc[nH]1 (stereo partly specified) inactive

Name the outcome recorded for CNC(=O)ON(C(C)=O)C(=O)NC in the assay. inactive

Fill in: this test's call for C[C@@]12CCC(=O)C=C1CC[C@H]1C2=CC[C@]2(C)C1CC[C@@]2(C)O (stereo partly specified) is ___ active

Status in this test for O=[N+]([O-])O.[NH-]C1CCCCC1[NH-].[NH-]C1CCCCC1[NH-].[NH-]C1CCCCC1[NH-].[OH-].[OH-].[OH-].[Pt+4].[Pt+4].[Pt+4] (stereo unspecified) ? inactive

Assay outcome for CCc1cccc(C(C)C)c1NC1=C([n+]2ccc(C)cc2)C(=O)c2ccccc2C1=O : what was it? inactive
